# assay_protocol: NCI Yeast Anticancer Drug Screen. Data for the sgs1 mgt1 strain (AID 161);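 further: 0% = growth of cultures given vehicle only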
# condition_info: S. cerevisiae sgs1 mgt1 strain, at 50.0 µM
This is part of a sample that, as a whole, favours compounds with a hit. Of some 79,000 tested, about 15% had one in any assay. Calls of active or inactive are those of the source. No stated cut-off is given here; in the data, active means growth inhibition above about 70%; inactive means the rest.
Please answer using one outcome listed in True for active, False for inactive

compound: CC(=O)OCc1ccc2c(c1)C(O)NC(=O)O2 (stereo not drawn)
class_name: False

compound: O=C1/C(=C/c2ccccc2)CN(C(=O)C(F)(F)F)C/C1=C\c1ccccc1
class_name: False

compound: O=Nc1c2n[nH]c1CCCCCCCCC2
class_name: True

**Q:** Could you kindly confirm the outcome this assay logged for Cc1ccc(-c2c(C#N)c(-c3ccc(Cl)cc3)c(C#N)c(=O)n2NS(=O)(=O)c2ccccc2)cc1 ?
**A:** False

**Q:** Now consider COc1cc2c[n+](C)c3c4ccccc4ccc3c2cc1OC (tested in a mixture with another compound) and answer again.
**A:** False

---

# assay_protocol: NCI Yeast Anticancer Drug Screen. Data for the sgs1 mgt1 strain (AID 161);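 further: 0% = growth of cultures given vehicle only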
# condition_info: S. cerevisiae sgs1 mgt1 strain, at 50.0 µM, active compounds read high
Compounds without any hit were thinned out: in the full panel of roughly 79,000, 15% have a hit. Active and inactive are the calls of the source. Cut-off read from the data, not from the text of the source: active = growth inhibition above about 70%; inactive = the rest.
reported_metric: growth inhibition

Examples with answers:
compound: C=C1C(=O)OC2C(C)C3C=CC(=O)[C@@]3(C)C(OC(=O)/C(C)=C/C)C1[C@@H]2OC(C)=O (some centres undefined)
growth inhibition: 87.8% (active)
--
compound: Cc1nc(Nc2ccc(Cl)cc2)sc1C(=O)NNC(=S)NN
growth inhibition: 91.8% (active)

**Q:** If you can, please state the reported growth inhibition value of CCOC(=O)C1=C(C)NC(=O)NC1c1coc2cc(C)cc(C)c2c1=O (centres undefined) .
**A:** -2.5% (inactive)

**Q:** Now consider O=C(O)c1ccccc1C(c1ccccc1)c1ccccc1 and answer again.
**A:** 85.8% (active)

**Q:** Now consider COc1ccc2nc3cccc([N+](=O)[O-])c3c(NCCO)c2c1 and answer again.
**A:** 87.8% (active)

**Q:** Now consider COC1=Nc2ccccc2/C=C\c2ccccc21 and answer again.
**A:** 67.7% (inactive)

**Q:** Now consider COc1ccc(C2=C(Cl)C(=O)N(c3ccccc3C)C(=O)C2(Cl)Cl)cc1 and answer again.
**A:** 97.9% (active)

**Q:** Now consider c1ccc(SSc2ccccn2)nc1 and answer again.
**A:** 53.1% (inactive)

**Q:** Now consider O=C(Nn1c(-c2ccccc2)nc2ccccc2c1=O)c1ccccc1O and answer again.
**A:** 79.5% (active)

---

# assay_protocol: NCI Yeast Anticancer Drug Screen. Data for the rad50 strain (AID 155);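 further: 0% = growth of vehicle-only cultures of the same strain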
# condition_info: S. cerevisiae rad50 strain growth inhibition; at 50.0 µM; active compounds read high
The panel holds about 79,000 compounds, 15% with a hit somewhere; the sample as a whole holds those more often. Active and inactive are the calls of the source. Cut-off read from the data, not from the text of the source: active = growth inhibition above about 70%; inactive = the rest.
Reported growth inhibition by item:

compound: CC(C)N=Cc1cc(Br)cc(Br)c1O.CC(C)N=Cc1cc(Br)cc(Br)c1O.[Co]
reported_metric: growth inhibition
experimental_result: 92% (active)

compound: COc1cc(C)c2sc3ccccc3c(=O)c2c1NCCCN(C)C
reported_metric: growth inhibition
experimental_result: 72.3% (active)

compound: O=S(c1ccccc1)c1c(Cl)c(Cl)nc(Cl)c1Cl (stereo unspecified)
reported_metric: growth inhibition
experimental_result: 99.2% (active)

compound: C=C1CC2(CC(C(C)C)CCC2C)OC1=O (stereo unspecified)
reported_metric: growth inhibition
experimental_result: 7.5% (inactive)

**Q:** If you can, please state the reported growth inhibition value of SCCc1ccccn1 .
**A:** 0.4% (inactive)

**Q:** Now consider CN(C)c1ccc(/C=N/c2nc(-c3ccccc3)cs2)cc1 and answer again.
**A:** 94.9% (active)

**Q:** Now consider c1nc2nc(N3CCOCC3)nc(N3CCCCC3)c2[nH]1 and answer again.
**A:** -1.35% (inactive)

**Q:** Now consider N#CCCN(CCC#N)c1ccc(C(Sc2ccccc2)C(NC(=O)c2cc([N+](=O)[O-])ccc2Cl)C(=O)Sc2ccccc2)cc1 (stereo unspecified) and answer again.
**A:** 75.7% (active)

**Q:** Now consider CCCCCC1OC(CCCCC)OC(CCCCC)O1 (stereo unspecified) and answer again.
**A:** 10.2% (inactive)
